Below, each of the binders is paired with its reported RSA Q40 value.
Target Under Test: hGHQ141N (human, UniProt P01241 27-217)
Sequence (P01241 27-217 Q167N): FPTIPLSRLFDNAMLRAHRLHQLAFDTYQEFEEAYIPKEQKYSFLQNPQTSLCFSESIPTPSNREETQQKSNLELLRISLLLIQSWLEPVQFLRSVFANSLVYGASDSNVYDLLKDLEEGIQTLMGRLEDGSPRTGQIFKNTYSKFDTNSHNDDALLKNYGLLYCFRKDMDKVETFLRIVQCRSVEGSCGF
Measurement Protocol: cell-based or functional assay

Looking for the measured RSA Q40 of GlyPro-mTGase_Y75A from S. ladakanum (enzyme) GPDSDERVTPPAEPLDRMPDPYRPSYGRAETIVNNYIRKWQQVYSHRDGRKQQMTEEQREWLSYGCVGVTWVNSGQAPTNRLAFAFFDEDKYKNELKNGRPRSGETRAEFEGRVAKDSFDEAKGFQRARDVASVMNKALENAHDEGAYLDNLKKELANGNDALRNEDARSPFYSALRNTPSFKDRNGGNHDPSKMKAVIYSKHFWSGQDRSGSSDKRKYGDPEAFRPDRGTGLVDMSRDRNIPRSPTSPGESFVNFDYGWFGAQTEADADKTVWTHGNHYHAPNGSLGAMHVYESKFRNWSDGYSDFDRGAYVVTFVPKSWNTAPDKVKQGWP , can you help?
0.03 relative to wild type TGase

Looking for the measured RSA Q40 of S. ladakanum GlyPro-TGase mutant S250C (enzyme) GPDSDERVTPPAEPLDRMPDPYRPSYGRAETIVNNYIRKWQQVYSHRDGRKQQMTEEQREWLSYGCVGVTWVNSGQYPTNRLAFAFFDEDKYKNELKNGRPRSGETRAEFEGRVAKDSFDEAKGFQRARDVASVMNKALENAHDEGAYLDNLKKELANGNDALRNEDARSPFYSALRNTPSFKDRNGGNHDPSKMKAVIYSKHFWSGQDRSGSSDKRKYGDPEAFRPDRGTGLVDMSRDRNIPRSPTSPGECFVNFDYGWFGAQTEADADKTVWTHGNHYHAPNGSLGAMHVYESKFRNWSDGYSDFDRGAYVVTFVPKSWNTAPDKVKQGWP , can you help?
3.02 relative to wild type TGase
